Recorded pest or weed control at 500 g/ha, one value per entry.
- Test system: ryegrass, Italian (Italian ryegrass, Lolium multiflorum)
- testDescription: Test A postemergence
- Type: in vivo
- conditionContext: Lolium multiflorum, post-emergence, 240 h, 500 g ai/ha, postemergence; visual injury, 0 to 100 scale (0 no effect, 100 complete control), approx. 10 d; read-out: Plant response rating, Ryegrass, Italian
Report the value in % with no unit label.

Worked cases, answers included:
structureSmiles: CSc1ccccc1NC(=O)[C@H]1C(=O)N(C)C[C@@H]1c1cc(C)c(Br)c(C)c1
pest or weed control at 500 g/ha, %: 30

structureSmiles: CN1C[C@H](c2ccc(F)c(F)c2)[C@@H](C(=O)Nc2cccc(F)c2F)C1=O
pest or weed control at 500 g/ha, %: 50

structureSmiles: O=C1NC[C@H](c2ccc3c(c2)OCO3)[C@H]1C(=O)Nc1ccc(F)cc1F
pest or weed control at 500 g/ha, %: 0

# ---- query molecule ----
Prompt line: Recorded pest or weed control at 500 g/ha for Cc1ccc([C@H]2CN(C)C(=O)[C@@H]2C(=O)Nc2cccc(F)c2C)cc1Cl , please?
Response line: 60
